The molecules listed here are annotated with their log10 IC50.
- tested system: bacterial Vibrio cholerae neuraminidase (VCNA) (Vibrio cholerae serotype O1)
- Construct: purchased Hoffmann La Roche, Basel, Switzerland
- Sequence (P0C6E9 25-781): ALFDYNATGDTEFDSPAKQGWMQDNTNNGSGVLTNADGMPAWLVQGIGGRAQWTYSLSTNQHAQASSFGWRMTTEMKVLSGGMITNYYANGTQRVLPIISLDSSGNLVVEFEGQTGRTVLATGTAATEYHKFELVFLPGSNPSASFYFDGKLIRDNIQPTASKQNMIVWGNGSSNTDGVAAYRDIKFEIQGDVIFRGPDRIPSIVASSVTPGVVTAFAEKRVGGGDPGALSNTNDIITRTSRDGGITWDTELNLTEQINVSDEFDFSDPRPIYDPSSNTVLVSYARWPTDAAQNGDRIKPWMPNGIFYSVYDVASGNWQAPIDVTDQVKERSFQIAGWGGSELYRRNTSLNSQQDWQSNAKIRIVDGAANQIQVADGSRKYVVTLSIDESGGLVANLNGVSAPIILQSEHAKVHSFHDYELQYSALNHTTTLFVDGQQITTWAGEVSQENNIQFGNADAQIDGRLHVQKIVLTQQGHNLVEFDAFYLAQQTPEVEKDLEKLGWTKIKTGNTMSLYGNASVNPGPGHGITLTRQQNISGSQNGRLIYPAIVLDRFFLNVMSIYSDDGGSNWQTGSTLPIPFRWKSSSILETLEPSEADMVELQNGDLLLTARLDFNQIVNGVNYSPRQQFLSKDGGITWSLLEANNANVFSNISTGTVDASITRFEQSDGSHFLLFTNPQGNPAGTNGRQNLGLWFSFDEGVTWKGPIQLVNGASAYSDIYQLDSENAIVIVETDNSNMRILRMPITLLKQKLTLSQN
- test name: biochemical
- measurement setup: mean ± SD, n = 3–6
Heads up: the numbers are on a log10 scale; they represent IC50 in mM.

See these solved cases before continuing.
O=C1OCC2OC(=O)c3cc(O)c(O)c(O)c3-c3c(O)c(O)c(O)c4c3C(=O)OC(C2OC(=O)c2cc(O)c(O)c(O)c2-c2c1cc(O)c(O)c2O)C1OC(=O)c2c-4c(O)c(O)c(O)c2C1O (stereo not drawn) ... -0.87
Oc1cc(O)c2c(c1)O[C@H](c1ccc(O)c(O)c1)[C@H](O)C2 [epicatechin] ... 0.36
O=C1O[C@H]2[C@H](OC(=O)c3cc(O)c(O)c(O)c3)[C@@H](OC(=O)c3cc(O)c(O)c4c3[C@@H]3C1=CC(=O)[C@](O)(O4)C3(O)O)[C@@H]1OC(=O)c3cc(O)c(O)c(O)c3-c3c(cc(O)c(O)c3O)C(=O)OC[C@H]2O1 ... -0.86
O=C1OC[C@@H](O)[C@H]([C@@H]2OC(=O)c3cc(O)c(O)c(O)c3-c3c(O)c(O)c(O)c4c3C(=O)O[C@H]2[C@@H]4O)OC(=O)c2cc(O)c(O)c(O)c2-c2c1cc(O)c(O)c2O ... -0.63

Prompt: Please look up its log10 IC50: Oc1cc(O)c2c(c1)O[C@H](c1ccc(O)c(O)c1)[C@@H](O)C2
Response: 0.31

Prompt: Name the recorded log10 IC50 for Oc1cc(O)c2c(c1)O[C@H](c1cc(O)c(O)c(O)c1)[C@@H](O)C2 .
Response: 0.29

====

- tested system: UniProt P0C6E9
measured quantity: IC50 (µM)
# value in µM; strip the unit string

Prompt: Recall the recorded IC50 for CC(=O)N[C@H]1[C@H]([C@H](O)[C@H](O)CO)OC(C(=O)O)=C[C@@H]1N=C(N)N with UniProt P0C6E9 and state it.
Response: 51.2

====

Form field: pIC50 (one value per entry).
- tested system: viral influenza A/California/04/2009 (H1N1) neuraminidase (H1N1-NA) (Influenza A virus (A/California/04/2009(H1N1)), UniProt C3W5S3)
- test name: biochemical
- Assay type: biochemical
- measurement setup: IC50 (Viral)
Interpret pIC50 as the negative base-10 log of the concentration measured in mol/L.

Please review the following examples before continuing.
Oc1cc(O)c2c(c1)O[C@H](c1cc(O)c(O)c(O)c1)[C@@H](O)C2 [gallocatechin] ... 2.75
O=C(O[C@H]1Cc2c(O)cc(O)cc2O[C@@H]1c1ccc(O)c(O)c1)c1cc(O)c(O)c(O)c1 [catechin-3-O-gallate] ... 2.71
Oc1cc(O)c2c(c1)O[C@H](c1ccc(O)c(O)c1)[C@H](O)C2 [epicatechin] ... 2.98
O=C(O[C@@H]1Cc2c(O)cc(O)cc2O[C@@H]1c1cc(O)c(O)c(O)c1)c1cc(O)c(O)c(O)c1 [epigallocatechin-3-O-gallate] ... 2.81
O=C(O[C@@H]1Cc2c(O)cc(O)cc2O[C@@H]1c1ccc(O)c(O)c1)c1cc(O)c(O)c(O)c1 [epicatechin-3-O-gallate] ... 2.72

--- query ---
Prompt: For the compound shown here, Oc1cc(O)c2c(c1)O[C@H](c1cc(O)c(O)c(O)c1)[C@H](O)C2 [epigallocatechin] , give the reported pIC50.
Response: 2.76
